Tested on: L1210 leukemia ip in BDF1 mice, survival T/C
Assay: NCI In Vivo Anticancer Drug Screen. Data for tumor model L1210 Leukemia (intraperitoneal) in B6D2F1 (BDF1) mice
Conditions: endpoint: mean survival time; dose: 400.0 mg/kg/injection; schedule: Q01DX001 (ip); vehicle: other; higher = longer survival
Protocol: The antitumor activity of compounds was measured in mice bearing transplantable tumors. Survival or tumor size were measured and the results are expressed as the measurement made in the treated group (T) divided by the measurement made in the vehicle treated control group (C). The tumor model used in this assay is L1210 Leukemia (intraperitoneal) in B6D2F1 (BDF1) mice
Inconclusive results and toxic doses are left out.
T/C for assorted compounds
readout name: T/C

compound: Clc1ccc(Cl)c2c(Br)cncc12
target under test: L1210 leukemia ip in BDF1 mice, survival T/C
readout name: T/C
result: 93 % of control
--
compound: CCC(C1=CCCCC1)c1nc2c([nH]1)c(=O)n(C)c(=O)n2C (stereo not given)
target under test: L1210 leukemia ip in BDF1 mice, survival T/C
readout name: T/C
result: 97 % of control
--
compound: OCC(O)C(O)C(O)C(Sc1ccccc1)Sc1ccccc1 (stereo not given)
target under test: L1210 leukemia ip in BDF1 mice, survival T/C
readout name: T/C
result: 97 % of control
--
compound: O=C(CCC(C(=O)Nc1ccccc1)C(O)(c1ccccc1)c1ccccc1)Nc1ccccc1 (stereo not given)
target under test: L1210 leukemia ip in BDF1 mice, survival T/C
readout name: T/C
result: 89 % of control
--
compound: Cc1cc(C)c2[nH]c(=O)c(C)c(C)c2c1Br
target under test: L1210 leukemia ip in BDF1 mice, survival T/C
readout name: T/C
result: 100 % of control
--
compound: COc1cc(Cl)ccc1NC(=O)C(O)C(O)C(O)C(O)CO (stereo not given)
target under test: L1210 leukemia ip in BDF1 mice, survival T/C
readout name: T/C
result: 101 % of control
--
compound: Cc1ccnc2ccc3ccccc3c12
target under test: L1210 leukemia ip in BDF1 mice, survival T/C
readout name: T/C
result: 113 % of control
--
compound: CCOC(=O)C(C)(C(=O)OCC)c1cccc2ccccc12
target under test: L1210 leukemia ip in BDF1 mice, survival T/C
readout name: T/C
result: 96 % of control
--
compound: O=C(O)c1ccc([N+](=O)[O-])cc1OCc1ccccc1
target under test: L1210 leukemia ip in BDF1 mice, survival T/C
readout name: T/C
result: 97 % of control
--
compound: CCCCCCCCCCCCCC(=O)OCC(OC(=O)CCCCCCCCCCCCC)C(OC(=O)CCCCCCCCCCCCC)C(OC(=O)CCCCCCCCCCCCC)C(C=O)OC(=O)CCCCCCCCCCCCC (stereo not given)
target under test: L1210 leukemia ip in BDF1 mice, survival T/C
readout name: T/C
result: 92 % of control

====

test system: L1210 leukemia ip in BDF1 mice, survival T/C; assay: NCI In Vivo Anticancer Drug Screen. Data for tumor model L1210 Leukemia (intraperitoneal) in B6D2F1 (BDF1) mice; settings: endpoint: mean survival time; dose: 100.0 mg/kg/injection; schedule: Q04DX003 (ip); vehicle: other; higher = longer survival
Inconclusive results and toxic doses are left out.

compound: CC(C)(C)P1(=O)OCC(c2ccccc2)CO1 (configuration not stated)
target under test: L1210 leukemia ip in BDF1 mice, survival T/C
T/C: 101 % of control
//
compound: OCc1cc(Cl)ccc1O
target under test: L1210 leukemia ip in BDF1 mice, survival T/C
T/C: 103 % of control
//
compound: Cc1cccc2c(Cl)c3cccc(C)c3nc12
target under test: L1210 leukemia ip in BDF1 mice, survival T/C
T/C: 95 % of control
//
compound: CC(=O)Nc1ccccc1SC(C)=O
target under test: L1210 leukemia ip in BDF1 mice, survival T/C
T/C: 88 % of control
//
compound: CCCCCCCCC(=O)N1CC(C)OC(C)C1 (configuration not stated)
target under test: L1210 leukemia ip in BDF1 mice, survival T/C
T/C: 118 % of control
//
compound: O=C(/C=C/c1cccc(Br)c1)c1ccc(Cl)cc1
target under test: L1210 leukemia ip in BDF1 mice, survival T/C
T/C: 89 % of control
//
compound: CCCCCCCCN(C)N=Nc1ccc(C(=O)O)cc1
target under test: L1210 leukemia ip in BDF1 mice, survival T/C
T/C: 92 % of control
